- Type: in vivo, BALB/c mice
- condition.context: BALB/c, mouse, non-draining lymph node, iv, 20 mg/kg
measured.quantity: AUC(0-inf) (µg·h/mL)
Respond with the bare value in µg·h/mL.

Reported AUC(0-inf) for CNCc1ccc(-c2cc(-c3nc(-c4ccc(S(=O)(=O)C(C)C)cc4)cnc3N)on2)cc1 [berzosertib] was 116

----------
- assay.comment: Plasma protein binding by rapid equilibrium dialysis
- Format: in vitro ADME
- condition.context: BALB/c, mouse
measured.quantity: fraction unbound at 24 h, 300 ng/mL
The answer should be written as a number, with no unit following it.

Reported fraction unbound at 24 h, 300 ng/mL for CNCc1ccc(-c2cc(-c3nc(-c4ccc(S(=O)(=O)C(C)C)cc4)cnc3N)on2)cc1 [berzosertib] was 0.028

Value source: paper PMC11390321
